Reference source: ChEMBL document CHEMBL3046147

# System: Oryza sativa
# assay: Phytotoxicity against two-leaf stage Oryza sativa cv. Nihonbare (rice) planted 1 cm depth measured after […]
# Type: organism-based
# assay.setup: in vivo
Please respond with rule met when measured MTD is strictly beneath 20 g/acre, and with rule not met in all other cases.

structure.string	category.label
CC1=C(c2ccccc2Cl)C(=O)N(C(C)(C)c2nc3ccccc3s2)C1	rule met
CC(C)(c1nc2ccccc2s1)N1CC=C(c2ccccc2)C1=O	rule met
CC1=C(c2ccccc2)C(=O)N(C(C)(C)c2nc3cc(F)ccc3s2)C1	rule met
COc1ccc(OC)c(C2=C(C)CN(C(C)(C)c3nc4ccccc4s3)C2=O)c1	rule met
CC1=C(c2ccccc2)C(=O)N(C(C)(C)c2nc(C(C)(C)C)cs2)C1	rule met
CC1=C(c2ccccc2)C(=O)N(C(C)(C)c2nc3cc(C(=O)O)ccc3s2)C1	rule met
CC1=C(/C=C/c2ccccc2)C(=O)N(C(C)(C)c2nc3ccccc3s2)C1	rule not met
CC1=C(c2ccccc2)C(=O)N(C(C)(C)c2nc3cc(Br)ccc3s2)C1	rule not met
CC1=C(c2ccccc2)C(=O)N(C(C)(C)c2nc3cccc(Cl)c3s2)C1	rule met
CCOc1ccc2nc(C(C)(C)N3CC(C)=C(c4ccccc4)C3=O)sc2c1	rule met
CC1=C(c2ccccc2)C(=O)N(C(C)(C)c2nc3c(C)cccc3s2)C1	rule met
CC1=C(c2ccccc2)C(=O)N(C(C)(C)c2csc(-c3ccccc3)n2)C1	rule not met
CC1=C(c2cccc(F)c2)C(=O)N(C(C)(C)c2nc3ccccc3s2)C1	rule met
CC1=C(c2ccccc2F)C(=O)N(C(C)(C)c2nc3ccccc3s2)C1	rule met
CC1=C(c2ccccc2)C(=O)N(C(C)(C)c2nc3ccc(C)cc3s2)C1	rule met

---

# Tested on: Oryza sativa
# assay: Phytotoxicity against two-leaf stage Oryza sativa cv. Nihonbare (rice) planted 1 cm depth measured after […]
# Type: organism-based
# assay.setup: in vivo

structure.string	result.operator	MTD [g/acre]
CC1=C(c2ccccc2)C(=O)N(C(C)(C)c2ccsc2)C1	=	20
CC1=C(c2ccccc2C#N)C(=O)N(C(C)(C)c2nc3ccccc3s2)C1	>	5
CC1=C(c2ccccc2)C(=O)N(C(C)(C)c2nc3ccc(Cl)cc3s2)C1	=	20
CC1=C(c2ccccc2C(F)(F)F)C(=O)N(C(C)(C)c2nc3ccccc3s2)C1	=	20
COc1ccccc1C1=C(C)CN(C(C)(C)c2nc3ccccc3s2)C1=O	>	5
COc1cccc2sc(C(C)(C)N3CC(C)=C(c4ccccc4)C3=O)nc12	=	20
COc1ccc2nc(C(C)(C)N3CC(C)=C(c4ccccc4)C3=O)sc2c1	>	5
CCC1=C(c2ccccc2)C(=O)N(C(C)(C)c2nc3ccccc3s2)C1	=	20
CC1=C(c2ccc(F)cc2)C(=O)N(C(C)(C)c2nc3ccccc3s2)C1	>	5
CC1=C(c2cccnc2)C(=O)N(C(C)(C)c2nc3ccccc3s2)C1	=	5
COc1ccc(C2=C(C)CN(C(C)(C)c3nc4ccccc4s3)C2=O)cc1OC	=	80
CC(=O)OC1=C(c2ccccc2)C(=O)N(C(C)(C)c2nc3ccccc3s2)C1	<	20
CC1=C(c2ccccc2)C(=O)N(C(C)(C)c2nc3ccccc3s2)C1	=	2.5
CC1=C(c2ccc(F)cc2F)C(=O)N(C(C)(C)c2nc3ccccc3s2)C1	>	5

---

# System: Echinochloa oryzicola
# assay: Herbicide activity against Echinochloa oryzicola under greenhouse condition compound treated at 2 leaf-stage measured after 14 to 20 days
# Assay type: functional

structure.string	MED
CC1=C(c2ccccc2)C(=O)N(C(C)(C)c2cc3ccccc3o2)C1	2.5 g/acre
CC1=C(c2ccccc2)C(=O)N(C(C)(C)c2nc(C(C)(C)C)cs2)C1	5 g/acre
CC1=C(c2ccccc2Cl)C(=O)N(C(C)(C)c2nc3ccccc3s2)C1	2.5 g/acre
CC1=C(c2ccccc2)C(=O)N(C(C)(C)c2ncc(-c3ccc(Cl)cc3)s2)C1	<5 g/acre
CC1=C(c2ccccc2C(F)(F)F)C(=O)N(C(C)(C)c2nc3ccccc3s2)C1	<5 g/acre
CCOc1ccc2nc(C(C)(C)N3CC(C)=C(c4ccccc4)C3=O)sc2c1	<5 g/acre
COc1ccc2nc(C(C)(C)N3CC(C)=C(c4ccccc4)C3=O)sc2c1	2.5 g/acre
CC1=C(c2ccccc2)C(=O)N(C(C)(C)c2nc3ccc(I)cc3s2)C1	<5 g/acre
CC(C)(c1nc2ccccc2s1)N1CC=C(c2ccccc2)C1=O	5 g/acre
CC1=C(c2ccccc2C#N)C(=O)N(C(C)(C)c2nc3ccccc3s2)C1	<5 g/acre
CC1=C(c2cccc(Cl)c2)C(=O)N(C(C)(C)c2nc3ccccc3s2)C1	<5 g/acre
CC1=C(c2ccccc2)C(=O)N(C(C)(C)c2nc3ccc(C)cc3s2)C1	<5 g/acre
CC1=C(c2ccccc2)C(=O)N(C(C)(C)c2ccc(Cl)s2)C1	10 g/acre
CC1=C(c2ccc(Cl)cc2)C(=O)N(C(C)(C)c2nc3ccccc3s2)C1	<5 g/acre
CC(C)(c1nc2ccccc2s1)N1CC(C(F)(F)F)=C(c2ccccc2)C1=O	<5 g/acre
CC1=C(c2ccccc2)C(=O)N(C(C)(C)c2nc3cc(C#N)ccc3s2)C1	<5 g/acre
CC1=C(c2ccccc2)C(=O)N(C(C)(C)c2nc3ccccc3n2C)C1	<5 g/acre
COc1cccc2sc(C(C)(C)N3CC(C)=C(c4ccccc4)C3=O)nc12	<5 g/acre
CC1=C(c2ccccc2)C(=O)N(C(C)(C)c2nc3cccnc3s2)C1	2.5 g/acre
CC1=C(c2ccccc2)C(=O)N(C(C)(C)c2cc3ccccc3s2)C1	5 g/acre
CC1=C(c2ccccc2O)C(=O)N(C(C)(C)c2nc3ccccc3s2)C1	<5 g/acre
CC1=C(/C=C/c2ccccc2)C(=O)N(C(C)(C)c2nc3ccccc3s2)C1	<5 g/acre
CC1=C(c2ccccc2)C(=O)N(C(C)(C)c2nc3c(Cl)cccc3s2)C1	5 g/acre
CC1=C(c2ccccc2)C(=O)N(C(C)(C)c2nc3cccc(Cl)c3s2)C1	<5 g/acre
COc1ccc(C2=C(C)CN(C(C)(C)c3nc4ccccc4s3)C2=O)cc1OC	<5 g/acre
CC1=C(c2ccccc2)C(=O)N(C(C)(C)c2csc3ccccc23)C1	<5 g/acre
CC1=C(c2ccccc2)C(=O)N(C(C)(C)c2nc3cc(F)ccc3s2)C1	5 g/acre
CC1=C(c2ccccc2)C(=O)N(C(C)(C)c2csc(-c3ccccc3)n2)C1	<5 g/acre
CC1=C(c2ccccc2)C(=O)N(C(C)(C)c2nc3cc(Cl)ccc3s2)C1	<5 g/acre
CC1=C(c2ccccc2)C(=O)N(C(C)(C)c2nc3ccc(Cl)cc3s2)C1	<5 g/acre
CC1=C(c2ccccc2)C(=O)N(C(C)(C)c2nc3c(C)cccc3s2)C1	<5 g/acre
COc1ccc(OC)c(C2=C(C)CN(C(C)(C)c3nc4ccccc4s3)C2=O)c1	<5 g/acre
CC1=C(c2cccc(C(F)(F)F)c2)C(=O)N(C(C)(C)c2nc3ccccc3s2)C1	<5 g/acre
CC1=C(c2cccc([N+](=O)[O-])c2)C(=O)N(C(C)(C)c2nc3ccccc3s2)C1	<5 g/acre
